These entries and their values trace back to patent US20020010207A1.

Quick reference for Selectivity DAT V. SERT among some compounds
Target: dopamine transporter (DAT) (Macaca fascicularis, UniProt Q9GJT6)
Construct: The caudate-putamen will be dissected from coronal slices; from tissue; host or cells: cynomolgus monkey caudate-putamen membranes
Sequence (Q9GJT6 whole entry): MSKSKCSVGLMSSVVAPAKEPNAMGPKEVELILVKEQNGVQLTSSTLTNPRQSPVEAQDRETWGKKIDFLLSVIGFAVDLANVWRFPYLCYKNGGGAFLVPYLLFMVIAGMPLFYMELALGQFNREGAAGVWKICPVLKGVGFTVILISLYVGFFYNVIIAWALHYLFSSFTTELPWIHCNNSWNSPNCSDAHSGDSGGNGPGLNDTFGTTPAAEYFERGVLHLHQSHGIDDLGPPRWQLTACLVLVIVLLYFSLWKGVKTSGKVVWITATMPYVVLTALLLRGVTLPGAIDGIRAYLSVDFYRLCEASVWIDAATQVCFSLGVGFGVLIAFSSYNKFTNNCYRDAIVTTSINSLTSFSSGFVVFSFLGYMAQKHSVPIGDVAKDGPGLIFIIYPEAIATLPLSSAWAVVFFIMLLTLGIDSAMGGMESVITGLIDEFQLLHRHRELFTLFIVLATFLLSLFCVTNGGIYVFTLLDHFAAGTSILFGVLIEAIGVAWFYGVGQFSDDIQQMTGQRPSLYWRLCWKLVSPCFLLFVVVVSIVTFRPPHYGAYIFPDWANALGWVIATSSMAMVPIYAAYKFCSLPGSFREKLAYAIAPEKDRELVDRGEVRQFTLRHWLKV
Experiment: Dopamine transporter assay: inhibition of 3H-WIN35,428 binding, caudate-putamen membranes
Design: species or system cynomolgus monkey (Macaca fascicularis)
Settings: Table 1; ratio of SERT IC50 to DAT IC50
observation-type: Selectivity DAT V. SERT

INSERT INTO measurements (compound, number) VALUES
  ('COC(=O)C1C(c2ccc(Cl)c(Cl)c2)CC2CC(O)C1N2C (stereo not shown)', 20),
  ('COC(=O)C1C(c2ccc(Cl)c(Cl)c2)CC2CC(OC)C1N2 (stereo not shown) [Compound 15]', 57),
  ('COC(=O)C1C(c2ccc(Cl)c(Cl)c2)CC2CC(OC)C1N2 (stereo not shown) [Compound 14]', 10),
  ('COC(=O)[C@H]1[C@@H](c2ccc(Cl)c(Cl)c2)C[C@@H]2CC[C@H]1N2C [reference compound]', 2);

* * *

Target: serotonin transporter (SERT) (Macaca fascicularis, UniProt A7KAX8)
Construct: The serotonin transporter is assayed in caudate-putamen membranes; from tissue; host or cells: cynomolgus monkey caudate-putamen membranes
Sequence (A7KAX8 1-630): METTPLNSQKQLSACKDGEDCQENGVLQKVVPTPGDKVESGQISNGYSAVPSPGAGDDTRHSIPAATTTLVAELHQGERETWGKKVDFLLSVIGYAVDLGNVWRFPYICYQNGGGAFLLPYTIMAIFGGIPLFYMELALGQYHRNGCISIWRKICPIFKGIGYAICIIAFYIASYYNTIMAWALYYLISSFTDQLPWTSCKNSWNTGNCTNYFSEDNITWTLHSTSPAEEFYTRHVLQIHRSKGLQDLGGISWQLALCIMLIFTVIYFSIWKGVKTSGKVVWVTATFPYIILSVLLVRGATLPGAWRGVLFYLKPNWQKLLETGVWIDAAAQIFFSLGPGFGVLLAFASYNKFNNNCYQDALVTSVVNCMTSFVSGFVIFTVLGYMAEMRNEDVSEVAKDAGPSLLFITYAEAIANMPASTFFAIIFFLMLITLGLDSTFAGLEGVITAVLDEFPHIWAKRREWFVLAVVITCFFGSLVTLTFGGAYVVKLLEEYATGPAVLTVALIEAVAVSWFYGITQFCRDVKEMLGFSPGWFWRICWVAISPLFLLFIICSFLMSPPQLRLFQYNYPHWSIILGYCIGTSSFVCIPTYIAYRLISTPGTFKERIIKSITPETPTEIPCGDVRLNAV
Experiment: Serotonin transporter assay: inhibition of 3H-citalopram binding, caudate-putamen membranes
Design: species or system cynomolgus monkey (Macaca fascicularis)
Conditions: Table 1; inhibition of 3H-citalopram binding, cynomolgus monkey caudate-putamen; read-out: IC50 (nM SERT)
observation-type: IC50 (nM)

INSERT INTO results (compound, tgt, observation_type, number) VALUES
  ('COC(=O)C1C(c2ccc(Cl)c(Cl)c2)CC2CC(O)C1N2C (stereo not shown) [Compound 11]', 'serotonin transporter (SERT) (Macaca fascicularis, UniProt A7KAX8)', 'IC50', 20),
  ('COC(=O)C1C(c2ccc(Cl)c(Cl)c2)CC2CC(OC)C1N2 (stereo not shown) [Compound 15]', 'serotonin transporter (SERT) (Macaca fascicularis, UniProt A7KAX8)', 'IC50', 5220),
  ('COC(=O)C1C(c2ccc(Cl)c(Cl)c2)CC2CC(O)C1N2 (stereo not shown) [Compound 10]', 'serotonin transporter (SERT) (Macaca fascicularis, UniProt A7KAX8)', 'IC50', 1450),
  ('COC(=O)C1C(c2ccc(Cl)c(Cl)c2)CC2CC(OC)C1N2 (stereo not shown) [Compound 14]', 'serotonin transporter (SERT) (Macaca fascicularis, UniProt A7KAX8)', 'IC50', 884);

* * *

Target: dopamine transporter (DAT) (Macaca fascicularis, UniProt Q9GJT6)
Construct: The caudate-putamen will be dissected from coronal slices; from tissue; host or cells: cynomolgus monkey caudate-putamen membranes
Test: Dopamine transporter assay: inhibition of 3H-WIN35,428 binding, caudate-putamen membranes
Parameters: species or system cynomolgus monkey (Macaca fascicularis)
Conditions: Table 1; inhibition of 3H-WIN35,428 binding, cynomolgus monkey caudate-putamen; read-out: IC50 (nM DAT)
observation-type: IC50

INSERT INTO results (compound, observation_type, result) VALUES
  ('COC(=O)C1C(c2ccc(Cl)c(Cl)c2)CC2CC(OC)C1N2 (stereo not shown) [Compound 14]', 'IC50', '86 nM'),
  ('COC(=O)C1C(c2ccc(Cl)c(Cl)c2)CC2CC(O)C1N2 (stereo not shown)', 'IC50', '1 nM'),
  ('COC(=O)C1C(c2ccc(Cl)c(Cl)c2)CC2CC(O)C1N2C (stereo not shown)', 'IC50', '1 nM'),
  ('COC(=O)C1C(c2ccc(Cl)c(Cl)c2)CC2CC(OC)C1N2 (stereo not shown) [Compound 15]', 'IC50', '92 nM');
